Items are presented alongside their recorded PBM binding z-score.
test system: PPARg:RXRa (NR concentration 180 nM, RXRa partner concentration 90 nM); assay: PBM binding z-score (relative to random genomic background probes); higher = stronger binding; sequences stand for … in GC…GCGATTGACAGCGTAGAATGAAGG
Note: the reply should be a number with no unit written.

Worked examples, 10 sequences total:
[
  {
    "sequence.text": "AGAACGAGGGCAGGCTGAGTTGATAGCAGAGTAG",
    "system": "PPARg:RXRa (NR concentration 180 nM, RXRa partner concentration 90 nM)",
    "quantity.name": "PBM binding z-score",
    "value.reported": 0.64
  },
  {
    "sequence.text": "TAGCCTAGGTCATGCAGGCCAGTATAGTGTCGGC",
    "system": "PPARg:RXRa (NR concentration 180 nM, RXRa partner concentration 90 nM)",
    "quantity.name": "PBM binding z-score",
    "value.reported": 2.19
  },
  {
    "sequence.text": "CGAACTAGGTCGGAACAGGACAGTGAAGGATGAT",
    "system": "PPARg:RXRa (NR concentration 180 nM, RXRa partner concentration 90 nM)",
    "quantity.name": "PBM binding z-score",
    "value.reported": 1.23
  },
  {
    "sequence.text": "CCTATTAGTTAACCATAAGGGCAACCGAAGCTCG",
    "system": "PPARg:RXRa (NR concentration 180 nM, RXRa partner concentration 90 nM)",
    "quantity.name": "PBM binding z-score",
    "value.reported": 0.374
  },
  {
    "sequence.text": "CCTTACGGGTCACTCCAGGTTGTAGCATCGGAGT",
    "system": "PPARg:RXRa (NR concentration 180 nM, RXRa partner concentration 90 nM)",
    "quantity.name": "PBM binding z-score",
    "value.reported": 2.92
  },
  {
    "sequence.text": "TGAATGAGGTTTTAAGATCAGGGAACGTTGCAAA",
    "system": "PPARg:RXRa (NR concentration 180 nM, RXRa partner concentration 90 nM)",
    "quantity.name": "PBM binding z-score",
    "value.reported": -0.186
  },
  {
    "sequence.text": "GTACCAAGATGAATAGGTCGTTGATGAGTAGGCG",
    "system": "PPARg:RXRa (NR concentration 180 nM, RXRa partner concentration 90 nM)",
    "quantity.name": "PBM binding z-score",
    "value.reported": 0.526
  },
  {
    "sequence.text": "TCATACAGGTAAAAGGTGAAAGTCGGTGTGGTAA",
    "system": "PPARg:RXRa (NR concentration 180 nM, RXRa partner concentration 90 nM)",
    "quantity.name": "PBM binding z-score",
    "value.reported": 6.38
  },
  {
    "sequence.text": "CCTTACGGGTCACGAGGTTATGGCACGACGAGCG",
    "system": "PPARg:RXRa (NR concentration 180 nM, RXRa partner concentration 90 nM)",
    "quantity.name": "PBM binding z-score",
    "value.reported": 7.08
  },
  {
    "sequence.text": "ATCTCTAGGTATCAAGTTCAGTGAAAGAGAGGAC",
    "system": "PPARg:RXRa (NR concentration 180 nM, RXRa partner concentration 90 nM)",
    "quantity.name": "PBM binding z-score",
    "value.reported": 0.577
  }
]

Quick one: PBM binding z-score of CCGACTGGGGCATAAGGATACCATAAGCCAGCCC ?
1.29

Item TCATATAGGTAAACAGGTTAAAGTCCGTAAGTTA has what recorded PBM binding z-score?
2.85

Would you mind telling me what PBM binding z-score value was observed for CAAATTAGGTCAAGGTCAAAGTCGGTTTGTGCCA ?
9.22
